Target: B1R receptor of the rat (rB1R) (Rattus norvegicus)
Construct: expressed in transfected cells; host or cells: CHO K1 cells
Sequence (P97583 1-337): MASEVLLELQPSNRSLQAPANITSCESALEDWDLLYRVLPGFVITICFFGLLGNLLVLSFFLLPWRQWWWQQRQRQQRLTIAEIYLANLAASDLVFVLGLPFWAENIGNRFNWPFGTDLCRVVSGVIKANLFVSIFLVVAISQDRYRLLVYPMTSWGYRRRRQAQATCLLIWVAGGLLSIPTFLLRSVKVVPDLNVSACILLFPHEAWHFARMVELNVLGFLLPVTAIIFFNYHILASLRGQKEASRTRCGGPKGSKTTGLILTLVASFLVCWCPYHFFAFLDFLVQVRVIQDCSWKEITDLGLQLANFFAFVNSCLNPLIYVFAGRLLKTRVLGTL
Test: Functional investigation on the bradykinin 1 receptor (B1R), FLIPR Ca2+ assay, rB1R cells
Type: cell-based
Details: CHO-K1, 10 μM test substance; CHO K1 cells with rat B1R; agonist Des-Arg9 bradykinin; % of maximum achievable inhibition; read-out: B1R antagonism, rat [10 μM] % inhibition
reportedEndpoint: inhibition at 10 µM (%)

Answered examples (6):
COc1cc(C)c(S(=O)(=O)Nc2cccc3ccn(CC(=O)N4CCC5(CCN(c6ccncc6)CC5)C4)c23)c(C)c1: 96
O=C(CCn1ccc2ccc(N3Cc4cccc(Cl)c4C3=O)cc21)NCCC1CCN(c2ccncc2)CC1: 71
O=C(Cn1ccc2ccc(N3Cc4cccc(Cl)c4C3=O)cc21)N1CCC2(CCC(Oc3ccncc3)CC2)CC1: 94
COc1cc(C)c(S(=O)(=O)Nc2cccc3ccn(CC(=O)N4CCC5(CCN(c6ccncc6)C5)C4)c23)c(C)c1 (stereo not shown): 95
Cc1cc(S(=O)(=O)Nc2ccc3ccn(CCC(=O)NCCN4CCC(c5cccs5)(N(C)C)CC4)c3c2)c(C)cc1Cl: 51
CN(CCCN1CCN(c2ccncc2)CC1)C(=O)CCn1ccc2ccc(N3Cc4cccc(Cl)c4C3=O)cc21: 72

[P] Cc1cc(S(=O)(=O)Nc2ccc3ccn(CCC(=O)NCCC4CCN(c5ccncc5)CC4)c3c2)c(C)cc1Cl
[Q] COc1cc(C)c(S(=O)(=O)Nc2ccc3ccn(CC(=O)N(C)CCCN4CCC(c5ccccc5)(N(C)C)CC4)c3c2)c(C)c1
IN: // max by inhibition at 10 µM over [ P , Q ] # respond with the chosen item's label
OUT: Q

----------
Target: B1R receptor of the rat (rB1R) (Rattus norvegicus, UniProt P97583)
Construct: expressed in transfected cells; host or cells: CHO K1 cells
Sequence (P97583 1-337): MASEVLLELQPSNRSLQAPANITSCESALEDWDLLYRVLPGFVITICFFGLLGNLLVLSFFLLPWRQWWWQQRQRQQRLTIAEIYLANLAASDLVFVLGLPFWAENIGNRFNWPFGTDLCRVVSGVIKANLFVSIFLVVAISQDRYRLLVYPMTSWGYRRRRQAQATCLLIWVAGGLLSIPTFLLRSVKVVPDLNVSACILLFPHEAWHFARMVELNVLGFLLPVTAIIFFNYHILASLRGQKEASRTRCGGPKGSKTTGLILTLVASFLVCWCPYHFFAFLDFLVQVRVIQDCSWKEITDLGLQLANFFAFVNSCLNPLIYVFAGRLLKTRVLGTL
Test: Functional investigation on the bradykinin 1 receptor (B1R), FLIPR Ca2+ assay, rB1R cells
Format: cell-based
Settings: CHO-K1, 10 μM test substance; CHO K1 cells with rat B1R; agonist Des-Arg9 bradykinin; % of maximum achievable inhibition; read-out: B1R antagonism, rat [10 μM] % inhibition
Protocol: The indication in % activation is based on the Ca^2+ signal after addition of Lys-Des-[…] bradykinin (0.5 nM) or Des-[…] bradykinin (100 nM). Antagonists lead to a suppression of the Ca^2+ influx following administration of the agonist. […] According to this assay, the Ca^2+ inflow through the channel is quantified with the aid of a Ca^2+-sensitive dye (Fluo-4 type, Molecular Probes Europe BV, Leiden, Netherlands) in a fluorescent imaging plate reader (FLIPR, Molecular Devices, Sunnyvale, USA). […]
reportedEndpoint: inhibition at 10 µM (%)

Solved cases below.
COc1cc(C)c(S(=O)(=O)Nc2ccc3ccn(CC(=O)N4CCN(C5CCN(C)CC5)CC4)c3c2)c(C)c1: 62
COc1cc(C)c(S(=O)(=O)Nc2ccc3ccn(CC(=O)N4CCC(OCCN5CCCC5)(c5cccnc5)CC4)c3c2)c(C)c1: 100
CN(CCCN1CCC(c2cccs2)(N(C)C)CC1)C(=O)Cn1ccc2cccc(NS(=O)(=O)c3cccc4ccccc34)c21: 58
O=C(CCn1ccc2ccc(N3Cc4cccc(Cl)c4C3=O)cc21)N1CCC(O)(c2cccnc2)CC1: 65

[a] CCN1CCN(CCCNC(=O)CCn2ccc3cccc(NS(=O)(=O)c4c(C)cc(OC)cc4C)c32)CC1
[b] O=C(Cn1ccc2ccc(N3Cc4cccc(Cl)c4C3=O)cc21)N1CCC2(CC1)CCN(c1ccncc1)CC2
IN: Sorting ascending by inhibition at 10 µM, which comes first: a or b ? Write down the label attached to your selection.
OUT: a
(a: 54%, b: 97%)
